The reported measurements were obtained from ChEMBL document CHEMBL1275575.

Test system: Mycobacterium tuberculosis variant bovis
experiment-description: Antibacterial activity against Mycobacterium bovis BCG-Pasteur
Type: functional
Label key: label 1 means MIC under 0.1 µg/mL; label 0 means MIC of 0.1 µg/mL or more.

| compound | experimental-target | label-value |
| --- | --- | --- |
| CO[C@H]1/C=C/O[C@@]2(C)Oc3c(C)c(O)c4c(O)c(c(/C=N/N5CCN(C)CC5)c(O)c4c3C2=O)NC(=O)/C(C)=C\C=C\[C@H](C)[C@H](O)[C@@H](C)[C@@H](O)[C@@H](C)[C@H](OC(C)=O)[C@@H]1C [RIFAMPIN] | Mycobacterium tuberculosis variant bovis | label 1 |
| CC[C@H]1OC(=O)[C@H](C)[C@@H](O[C@H]2C[C@@](C)(OC)[C@@H](O)[C@H](C)O2)[C@H](C)[C@@H](O[C@@H]2O[C@H](C)C[C@H](N(C)C)[C@H]2O)[C@](C)(OC)C[C@@H](C)C(=O)[C@H](C)[C@@H](O)[C@]1(C)O [CLARITHROMYCIN] | Mycobacterium tuberculosis variant bovis | label 0 |
| CC1COc2c(N3CCN(C)CC3)c(F)cc3c(=O)c(C(=O)O)cn1c23 (configuration not stated) [OFLOXACIN] | Mycobacterium tuberculosis variant bovis | label 0 |
| CC[C@H]1OC(=O)[C@H](C)[C@@H](O[C@H]2C[C@@](C)(OC)[C@@H](O)[C@H](C)O2)[C@H](C)[C@@H](O[C@@H]2O[C@H](C)C[C@H](N(C)C)[C@H]2O)[C@](C)(O)C[C@@H](C)C(=O)[C@H](C)[C@@H](O)[C@]1(C)O [ERYTHROMYCIN] | Mycobacterium tuberculosis variant bovis | label 0 |
| CC[C@H]1OC(=O)[C@H](C)[C@@H](O[C@H]2C[C@@](C)(OC)[C@@H](O)[C@H](C)O2)[C@H](C)[C@@H](O[C@@H]2O[C@H](C)C[C@H](N(C)C)[C@H]2O)[C@](C)(O)C[C@@H](C)CN(C)[C@H](C)[C@@H](O)[C@]1(C)O [AZITHROMYCIN] | Mycobacterium tuberculosis variant bovis | label 0 |
| CO[C@H]1/C=C/O[C@@]2(C)Oc3c(C)c(O)c4c(c3C2=O)C2=NC3(CCN(CC(C)C)CC3)NC2=C(NC(=O)/C(C)=C\C=C\[C@H](C)[C@H](O)[C@@H](C)[C@@H](O)[C@@H](C)[C@H](OC(C)=O)[C@@H]1C)C4=O [RIFABUTIN] | Mycobacterium tuberculosis variant bovis | label 1 |
